Tested on: NCI-H23 lung
Assay: NCI tumour cell line growth inhibition, 48 h
OBSERVED PROPERTY: TGI

Example entries and their recorded answers appear below.
Query: For the molecule shown here, Nc1cccc2cc(Cl)cnc12 , give the reported TGI.
Result: > 100 µM

Query: May I ask what TGI has been recorded for Cc1ccccc1-n1c(=O)c2ncn(CCCl)c2n(-c2ccccc2C)c1=S ?
Result: > 100 µM

Query: If you can, please state the reported TGI value of Clc1cc2nsnc2c(Cl)n1 .
Result: 39.9 µM

Consider now this further molecule.
Query: Any idea what its TGI is? The molecule is CSc1nc2c(c(=O)[nH]1)N=C1c3ccccc3C(=O)C1C(c1ccccc1)N2 (centres undefined)
Result: > 100 µM
